Test system: SF-539 CNS
Assay: NCI tumour cell line growth inhibition, 48 h
readout kind: TGI

Recorded results for 5 molecules are shown here.
INSERT INTO measurements (molecule, result) VALUES
  ('O=C(/C=C/c1cccs1)c1ccc(Cl)s1', '> 100 µM'),
  ('CCOP(=O)(OCC)/C(C#N)=C/c1cc(O)ccc1O', '> 100 µM'),
  ('O=C(O)CP(=O)(c1ccccc1)c1ccccc1.O=C(O)CP(=O)(c1ccccc1)c1ccccc1.[Cd]', '26.2 µM'),
  ('Cc1n(CC(C)C)c2c([n+]1CC(=O)c1ccc([N+](=O)[O-])cc1)C(=O)c1ccccc1C2=O', '< 0.0387 µM'),
  ('Cc1cn(CCCCOC(=O)NC(CCCNC(N)=O)C(=O)O)c(=O)[nH]c1=O (stereo not given)', '> 100 µM');

For record O=c1nc(-c2ccccc2)scc1-c1ccccc1 the listed TGI is > 100 µM

For record Cc1ccc(C2SC(N)=Nc3c2c(C)nn3C(=O)c2ccc(Cl)cc2)cc1 (stereo not given) the listed TGI is > 10 µM

For record CCN(CC)c1nc(=O)c(C(=O)C(C)(C)C)c(C(C)(C)C)o1 the listed TGI is > 100 µM

For record Cc1ccc(S(=O)(=O)NC(=O)C#CCOC2CCCCO2)cc1 (stereo not given) the listed TGI is > 100 µM

For record CCCC(=O)[O-].CCCC(=O)[O-].N.N.N.N.[Co+3].[O-][Cl+3]([O-])([O-])[O-] the listed TGI is > 100 µM

###

Tested on: KM20L2 colon
Assay: NCI tumour cell line growth inhibition, 48 h
readout kind: TGI

For record COc1ccc(NC(=O)CC(=O)n2nc(-c3ccccc3)c(N=Nc3ccccc3C)c2-c2ccccc2)cc1 the listed TGI is > 100 µM

For record CC(=O)OCc1c(C)c2ccccc2n1C(C)=O the listed TGI is > 100 µM

For record Clc1ccc2c(Cl)nc(-c3ccccc3)nc2c1 the listed TGI is 68 µM

For record CCCCCCCCCCCCCC(=O)OC1C(CO)OC(=O)C1O (stereo unspecified) the listed TGI is > 100 µM

For record COc1ccc2c([nH]c3cc(O)c(C)cc32)c1CC=C(C)C the listed TGI is > 25 µM

For record CCCC(=O)[O-].CCCC(=O)[O-].N.N.N.N.[Co+3].[O-][Cl+3]([O-])([O-])[O-] the listed TGI is > 100 µM

For record C[CH2][Sn]([Cl])([CH2]C)[CH2]C the listed TGI is 2.99 µM

###

Test system: KM12 colon
Experiment: NCI tumour cell line growth inhibition, 48 h; in the data active means GI50 below about 0.43 µM; inactive means the rest
Please reply with one of these outcomes: active, inactive

Study these solved cases before continuing.
INSERT INTO results (compound, cat) VALUES
  ('O=C1C(Cl)=C(Nc2ccccn2)C(=O)c2ccccc21', 'inactive'),
  ('Cc1cn2c(/C=N/N=C(N)N)c(-c3cc(Cl)sc3Cl)nc2s1', 'inactive'),
  ('C(=C\c1nc2ccccc2s1)/c1ccc(N2CCOCC2)s1', 'inactive'),
  ('N#C/C(=C\c1ccc([N+](=O)[O-])s1)c1nc2cc(Br)ccc2s1', 'active'),
  ('COc1ccc2cc(C(=O)/C=C/c3ccco3)ccc2c1', 'inactive');

Hi, do you know how CN1CCN(CCCN2c3ccccc3Sc3ccc(C(F)(F)F)cc32)CC1 came out in this test?
inactive

Hi, do you know how CC(=O)OC1CC(C)c2c(Cl)ncnc21 (configuration not stated) came out in this test?
inactive

###

Test system: DU-145 prostate
Experiment: NCI tumour cell line growth inhibition, 48 h
Each entry below lists one item and its recorded TGI value.

Recorded results for 3 compounds are shown here.
INSERT INTO results (compound, result) VALUES
  ('C=CCCC(O)c1ccc(CCCCCCCCCCC)o1 (centres undefined)', '31.1 µM'),
  ('COc1ccc2c(c1)c(-c1nc(-c3cn(C)c4ncccc34)cs1)cn2CCCCN1CCOCC1', '5.05 µM'),
  ('COc1cc(C(=O)Nc2cc(O)c(C/C=C(\C)CCC=C(C)C)c(O)c2)cc2c1O[C@]1(C)CC[C@@H](O)C(C)(C)[C@H]1C2', '13.1 µM');

Noted TGI for O=C1C(Cl)=C(Nc2cccc(O)c2)C(=O)N1c1ccc(Cl)cc1Cl , tested on DU-145 prostate: 90.5 µM

Noted TGI for Cc1ccc(S(=O)(=O)c2ccsc2NC(=O)c2ccccc2)cc1 , tested on DU-145 prostate: > 100 µM

Noted TGI for CS(=O)(=O)c1ccc(-c2[nH]c3ccc(F)cc3c2/C=N/NC(N)=S)cc1 , tested on DU-145 prostate: > 100 µM

###

Each entry below lists one item and its recorded TGI value.
System: COLO 205 colon
Assay: NCI tumour cell line growth inhibition, 48 h
# value in µM; strip the unit string

INSERT INTO measurements (compound, result_number) VALUES
  ('Nc1ccc(-c2nc3ccccc3s2)cc1F', 48.3);

For the next question, use this compound.
Noted TGI for Cc1csc(-c2ccc3c(c2)COC3(CCCN(C)C)c2ccc(F)cc2)c1 (stereo not drawn) , tested on COLO 205 colon: 5.64

###

Each entry below lists one item and its recorded TGI value.
Tested on: SN12C renal
Experiment: NCI tumour cell line growth inhibition, 48 h

Recorded results for 2 compounds are shown here.
INSERT INTO results (compound, result) VALUES
  ('O=C1C2C3CCC(C2C(=O)N1CO)C1C2C(=O)N(CO)C(=O)C2C31 (centres undefined)', '> 69.2 µM'),
  ('COc1cc2c3c(c1OCc1ccccc1)NCCC3NCC2 (centres undefined)', '> 100 µM');

For record COc1cc([N+](=O)[O-])c(OC)cc1-c1nc2n(c1/C(N)=N/C(=N)N)CCS2 the listed TGI is > 100 µM

###

Each entry below lists one item and its recorded TGI value.
Tested on: M14 melanoma
Experiment: NCI tumour cell line growth inhibition, 48 h
# value in µM; strip the unit string

Recorded results for 3 compounds are shown here.
INSERT INTO assay_data (compound, unit_text, result_number) VALUES
  ('COc1cc(CCNc2nc3cc(N)cc(N)c3nc2-c2ccccc2)cc(OC)c1', 'µM', 4.05),
  ('CC(C)N(C(=O)c1ccc(NCc2cc(O)ccc2O)cc1)C(C)C', 'µM', 35.7),
  ('CN1CCc2cc(O)c3cc2C1Cc1ccc(cc1)Oc1cc(ccc1O)CC1c2c(cc4c(c2O3)OCO4)CCN1C (stereo not given)', 'µM', 32.2);

Noted TGI for N#C/C(=C\c1ccc([N+](=O)[O-])s1)c1nc2cc(Br)ccc2s1 , tested on M14 melanoma: 0.323

###

System: U251 CNS
Assay: NCI tumour cell line growth inhibition, 48 h
readout kind: TGI

INSERT INTO results (molecule, result) VALUES
  ('N#CC(C#N)=Cc1ccc(Oc2ccccc2)cc1', '> 57 µM');

For record CCCCC/C=C\C/C=C/CCCCCCCCNC(=O)Nc1ccc([N+](=O)[O-])cc1 the listed TGI is > 100 µM

For record CC1OC(n2cc(I)c(=O)[nH]c2=O)C=CC1=O (configuration not stated) the listed TGI is 27.6 µM

###

System: HOP-92 NSCLC
Assay: NCI tumour cell line growth inhibition, 48 h
Each entry below lists one item and its recorded TGI value.

Recorded results for 3 compounds are shown here.
INSERT INTO results (compound, result) VALUES
  ('CN/N=C(/CC(=O)c1sc(-n2nc(-c3ccccc3)cc2-c2ccccc2)nc1C)C(=O)Nc1ccc(Cl)c(Cl)c1', '70.4 µM'),
  ('Cc1ccc(Nc2cc(=O)[nH]c(=O)[nH]2)cc1CS', '> 100 µM'),
  ('O=C1C2C3CCC(C2C(=O)N1CO)C1C2C(=O)N(CO)C(=O)C2C31 (stereo not given)', '> 100 µM');

For record COc1ccc(OC)c(-c2cc(C(=O)O)c3cc4ccccc4cc3n2)c1 the listed TGI is > 100 µM

For record O=C(CC(=O)c1cccc([N+](=O)[O-])c1)C(=O)Nc1nc([N+](=O)[O-])cs1 the listed TGI is > 100 µM

For record COC(=O)C(CCSc1ccccc1)C(=O)OC the listed TGI is > 100 µM

For record Cc1cc(S(=O)(=O)Nc2nc(N)nc(N(C)C)n2)c(SC(C(=O)O)c2ccccc2)cc1Cl (stereo not given) the listed TGI is > 10 µM

###

System: EKVX NSCLC
Test: NCI tumour cell line growth inhibition, 48 h
readout kind: TGI

Recorded results for 3 molecules are shown here.
INSERT INTO assay_data (molecule, result) VALUES
  ('O=C1CCCCCCCCCCC1CN(Cc1ccccc1)Cc1ccccc1 (centres undefined)', '> 100 µM'),
  ('CN1CC(S(=O)(=O)c2ccccc2)CC(S(=O)(=O)c2ccccc2)C1c1ccccc1 (centres undefined)', '32.6 µM'),
  ('COc1cc(O)c2c(c1O)C(=O)c1cc(C)ncc1C2=O', '> 50 µM');

Noted TGI for O=c1[nH]c(=O)n(C2OC(CO)C(O)C2O)cc1OCc1ccccc1 (centres undefined) , tested on EKVX NSCLC: > 100 µM

Noted TGI for Cc1nc2ccc(S(=O)(=O)Nc3ccccc3Cl)cc2c(=O)n1NC(=O)CNc1ccccc1Cl , tested on EKVX NSCLC: > 100 µM

Noted TGI for CC(=O)OC(C#N)CC(C)(C)/[N+]([O-])=[N+](\[O-])C(C)(C)CC(C#N)OC(C)=O (centres undefined) , tested on EKVX NSCLC: 39.7 µM

Noted TGI for COc1cc(/C=N/Nc2ncnc3c2cnn3Cc2ccccc2)ccc1O , tested on EKVX NSCLC: > 25 µM

Noted TGI for COCO[C@@H]1CC2C=Nc3cc(OCc4ccccc4)c(OC)cc3C(=O)N2C1 (some centres undefined) , tested on EKVX NSCLC: 4.85 µM

Noted TGI for Cc1n(-c2ccccc2)c2c([n+]1Cc1ccc([N+](=O)[O-])cc1)C(=O)c1ccccc1C2=O , tested on EKVX NSCLC: 5.7 µM

Noted TGI for O=C(O)c1nc2cc(C(F)(F)F)ccc2[nH]c1=O , tested on EKVX NSCLC: > 100 µM

Noted TGI for COc1cc(S(=O)(=O)Nc2ccc(-c3csc(/N=C\C=C\c4ccccc4)n3)cc2)ccc1Cl , tested on EKVX NSCLC: > 100 µM

Cited source: PubChem BioAssay (NCI)
